# Measured target: Replicase polyprotein 1ab (Severe acute respiratory syndrome coronavirus 2, UniProt P0DTD1)
pIC50: −log10 of the molar value.
// -1 strictly below 4 in pIC50; 1 otherwise

Compound smiles: CC1(C)C=Cc2c(ccc3cc(C(=O)N/N=C/c4ccc5ccccc5n4)oc23)O1
Class assignment: -1
//
Compound smiles: CC1(C)C=Cc2c(ccc3cc(C(=O)N/N=C/c4cnc5ccccc5c4)oc23)O1
Class assignment: 1
//
Compound smiles: CC1(C)C=Cc2c(ccc3cc(C(=O)N/N=C/c4cccc5ncccc45)oc23)O1
Class assignment: 1
//
Compound smiles: CC1(C)C=Cc2c(ccc3cc(C(=O)N/N=C/c4ccc5ncccc5c4)oc23)O1
Class assignment: 1
//
Compound smiles: CC1(C)C=Cc2c(ccc3cc(C(=O)N/N=C/c4cccc5cccnc45)oc23)O1
Class assignment: 1

Field: next compound
Ask | Has `CC1(C)C=Cc2c(ccc3cc(C(=O)N/N=C/c4ccc5cccc(O)c5n4)oc23)O1` a recorded pIC50 greater than or equal to 4?
Reply | -1
